Source: PubChem BioAssay

Experiment: cell viability in Huh7 cells, primary screen, cytotoxicity control for HCV replication inhibitor project, CellTiter-Glo luminescence, basal, 48 h (AID 1143);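 further: Huh7 hepatoma cells carrying a hepatitis C replication reporter with no stimulus; test concentration not given here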
Details: Huh7 HCV replicon, higher = more signal, called active from +8 up or from −8 down
Provide the recorded z-score for the entries that follow.
Answers are plain numbers.

Solved entries (count: 6):
molecule=Cc1ccc(S[C@]2(C(=O)NCc3ccccc3)CC(=O)N(Cc3ccccc3Cl)[C@@H]2c2ccc(CO)cc2I)cc1 property_name=z-score number=-1.68
molecule=COC(=O)[C@@]1(Cc2ccc(OC)cc2)[C@H]2c3cc(C(=O)N4CCCC4)n(CCc4c[nH]c5cc(F)ccc45)c3C[C@H]2CN1C(=O)c1ccccc1 property_name=z-score number=-1.26
molecule="CCOc1cc(C(O)C2C=CC3C(=O)N(c4ccccc4)C(=O)C3N2Nc2ccc([N+](=O)[O-])cc2)ccc1O (centres undefined)" property_name=z-score number=-1.04
molecule=COCCOC(=O)N1C(=O)[C@@]2(c3cc(C#CCC(C(=O)OC)C(=O)OC)ccc31)[C@H](C(=O)N1CCN(c3ncccn3)CC1)[C@H]1C(=O)O[C@H](c3ccccc3)[C@H](c3ccccc3)N1[C@@H]2c1ccc(OCCO)cc1 property_name=z-score number=-3.18
molecule=O=C(O)[C@@]1(Cc2ccccc2)N=C(c2ccc(OCCCO)cc2)O[C@H]1c1ccccc1 property_name=z-score number=-0.637
molecule="Cc1cc(C)cc(N2C(=O)CS(=O)(=O)C2c2cccc([N+](=O)[O-])c2)c1 (centres undefined)" property_name=z-score number=-2.18

Report z-score for each item below.
1. COCCOC(=O)N1C(=O)[C@@]2(c3cc(C#CC4=CCCCC4)ccc31)[C@H](C(=O)N1CCc3cc(OC)c(OC)cc3C1)[C@H]1C(=O)O[C@H](c3ccccc3)[C@H](c3ccccc3)N1[C@@H]2c1ccccc1OCCO
2. COC(=O)[C@@]1(Cc2ccc(OC)cc2)[C@H]2c3cc(C(=O)N4CCCC4)n(Cc4ccccn4)c3C[C@H]2CN1C(=O)c1ccccc1
3. CCCCCN1CC=CC23O[C@@H]4C=CCOC(=O)[C@@H]4[C@H]2C(=O)N(CCCO)[C@@H]3C1=O (some centres undefined)
4. COc1ccc(CCNC(=O)[C@@]2(c3ccc([N+](=O)[O-])cc3)CC(=O)N(CC34CC5CC(CC(C5)C3)C4)[C@@H]2c2ccc(CO)cc2)cc1
5. CCCC[C@H]1OB(O)C[C@H]2C1=C(C)C[C@H]1C(=O)N(Cc3ccccc3)C(=O)[C@H]12
6. CCCCC=C[C@@H](NC(=O)c1ccco1)c1ccccc1

1: -1.3; 2: -1.47; 3: -2.93; 4: -5.75; 5: 0.342; 6: -1.08

For every listed record, write down its z-score.
1. COCCOC(=O)N1C(=O)[C@@]2(c3cc(C#CCNC(N)=O)ccc31)[C@H](c1ccc(O)cc1)N1[C@H](c3ccccc3)[C@H](c3ccccc3)OC(=O)[C@H]1[C@@H]2C(=O)Nc1nc2ccccc2s1
2. NCCCCCNC(=O)[C@H]1C[C@H]2C(=O)NCC(=O)N2[C@H]1c1cccc(OCCO)c1

1. -2.61
2. 0.241

----------
System: glycogen synthase kinase-3 (GSK3A per assay name; protocol says GSK3B)
Test: GSK3 binders on small-molecule microarrays, primary screen, biochemical, small-molecule microarray, 635 nm fluorescence, GSK3A (AID 1103); further: the record names both GSK3A and GSK3B
Conditions: small-molecule microarray binding, fluorescence 635 nm; higher = more signal
property name: composite z-score
Answers are plain numbers.

compound=CCCN1C(=O)[C@]2(COC(c3ccc(OCCCO)cc3)=N2)Cc2ccccc21 assay_system="glycogen synthase kinase-3 (GSK3A per assay name; protocol says GSK3B)" number=1

I would be grateful if you could provide composite z-score for each of the following entries.
1. C=C[C@@H](COC(C)=O)N(Cc1ccc([N+](=O)[O-])cc1)S(=O)(=O)c1ccc(Br)cc1
2. [N-]=[N+]=NCc1ccccc1[C@H]1OC(c2ccc(OCCCO)cc2)=N[C@@]1(CCS(=O)(=O)c1ccccc1)C(=O)N1CCOCC1
3. [N-]=[N+]=NCc1ccccc1C[C@@]1(C(=O)NCC(O)CO)N=C(c2ccc(OCCCO)cc2)O[C@@H]1c1ccccc1CN=[N+]=[N-] (stereo not given in full)

0.283
0.239
0.712

----------
Answer each item with its documented composite z-score.
Experiment: small-molecule binders of probe aLefty1, primary screen, biochemical, small-molecule microarray, 635/667 nm fluorescence (AID 1153);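 further: score merges spot fluorescence with signal-to-noise ratio from the scanned slide images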
Settings: higher = more signal
Numbers only.

line_notation=COC(=O)[C@@]1(Cc2ccccc2)[C@H]2c3cc(C(=O)N4CCCC4)n(C)c3C[C@H]2CN1C(=O)c1ccccc1 property_name="composite z-score" number=0.321
line_notation=COCCOC(=O)N1C(=O)[C@@]2(c3cc(C#CCNC(N)=O)ccc31)[C@H](c1ccc(O)cc1)N1[C@H](c3ccccc3)[C@H](c3ccccc3)OC(=O)[C@H]1[C@@H]2C(=O)Nc1nc2ccccc2s1 property_name="composite z-score" number=0.144

Hi there! I need composite z-score for each item below, if you can.
1. COCCOC(=O)N1C(=O)[C@@]2(c3cc(C#CCNC(N)=O)ccc31)[C@H](c1ccc(O)cc1)N1[C@H](c3ccccc3)[C@H](c3ccccc3)OC(=O)[C@H]1[C@@H]2C(=O)NC[C@H](O)c1ccccc1
2. NC(=O)NCC#Cc1ccc2c(c1)[C@]1(C(=O)N2)[C@H](C(=O)NC[C@H](O)c2ccccc2)[C@H]2C(=O)O[C@H](c3ccccc3)[C@H](c3ccccc3)N2[C@@H]1c1ccc(O)cc1
3. CC1=C2[C@@H](CCc3ccccc3)OB(O)C[C@@H]2n2c(=O)n(-c3ccccc3)c(=O)n2C1

1: 0.101; 2: -0.149; 3: -0.347

Consider the compound shown here: "N[C@@H](Cc1ccccc1)Cn1cc(-c2ccccc2)nn1" What is its recorded composite z-score?
0.271

----------
Experiment: adipocyte viability effects, profiling panel, cell-based, 3T3-L1 adipocytes, calcein-AM fluorescence, 48 h, basal (AID 1163); further: test concentration not given here
Settings: 3T3-L1 adipocytes viability, higher = more signal
property name: z-score
One number for each entry.

Below are worked cases with known answers.
compound=[N-]=[N+]=Nc1ccccc1[C@@H]1OC(c2ccc(OCCCO)cc2)=N[C@]1(CCS(=O)(=O)c1ccccc1)C(=O)N1CCOCC1 property_name=z-score number=0.293
compound=COC(=O)C(CC#Cc1ccc2c(c1)[C@]1(C(=O)N2)[C@H](C(=O)NC[C@H](O)c2ccccc2)[C@H]2C(=O)O[C@H](c3ccccc3)[C@H](c3ccccc3)N2[C@@H]1c1ccc(OCCO)cc1)C(=O)OC property_name=z-score number=0.55
compound="CCOC(=O)C1=CCC(C(C)(C)C)N(S(=O)(=O)c2ccc(C)cc2)C1 (configuration not stated)" property_name=z-score number=-0.194

Give one value of z-score per listed compound.
1. CC(C)N1C(=O)[C@@]2(c3ccc([N+](=O)[O-])cc3)CC(=O)N(CC34CC5CC(CC(C5)C3)C4)[C@@H]2c2ccc(CO)cc21
2. [N-]=[N+]=NCc1ccccc1C[C@]1(C(=O)NCC(O)CO)N=C(c2ccc(OCCCO)cc2)O[C@H]1c1ccccc1N=[N+]=[N-] (some centres not stated)
3. CC(C)CNC(=O)[C@@]1(c2ccc([N+](=O)[O-])cc2)CC(=O)N(CC23CC4CC(CC(C4)C2)C3)[C@@H]1c1ccc(CO)cc1
4. NCCCCCNC(=O)[C@H]1C[C@H]2C(=O)NCC(=O)N2[C@H]1c1cccc(OCCO)c1

1: -1.22; 2: 1.27; 3: 1.57; 4: 0.118

----------
Test: small-molecule binders of probe aLefty1, primary screen, biochemical, small-molecule microarray, 635/667 nm fluorescence (AID 1153);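 further: score merges spot fluorescence with signal-to-noise ratio from the scanned slide images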
Conditions: higher = more signal
Please go through the items and note down their composite z-score.
Give bare numbers.

molecule=COc1ccc([Si](C)(C)[C@@H]2[C@@H](CC(=O)N(CCO)Cc3ccccc3)O[C@]3(C(=O)N(C)c4ccccc43)[C@H]2C)cc1 number=0.31
molecule=COc1cc(CO)ccc1OC(C)=O number=-0.157
molecule=CCCNC(=O)[C@@H]1c2ccccc2C(=O)N(Cc2ccccc2)[C@H]1c1ccc(CO)cc1 number=-0.0508
molecule="CCCCC(O)C1C=CC2C(=O)N(C3CCCCC3)C(=O)C2N1Nc1ccc(OC)cc1 (stereo not drawn)" number=0.366
molecule=C=C[C@@H](COC(C)=O)N(Cc1ccccc1[N+](=O)[O-])S(=O)(=O)c1ccc(Br)cc1 number=-0.339

For every item below, please supply its composite z-score.
1. COC(=O)c1ccc(C23CC2(C(NP(=O)(c2ccccc2)c2ccccc2)c2ccccc2)C3)cc1 (stereo not drawn)
2. Cc1ccc(S[C@]2(C(=O)NCc3ccccc3)CC(=O)N(Cc3ccccc3)[C@@H]2c2ccc(CO)cc2)cc1
3. COCCOC(=O)N1C(=O)[C@@]2(c3cc(C#CCC(C(=O)OC)C(=O)OC)ccc31)[C@H](c1ccccc1OCCO)N1[C@H](c3ccccc3)[C@H](c3ccccc3)OC(=O)[C@H]1[C@@H]2C(=O)N1CCc2cc(OC)c(OC)cc2C1

1: 1.08; 2: -0.188; 3: 0.438
